Provide the reported abundance fitness of each item.
B1: E3 ubiquitin-protein ligase NEDD4, residues 836 to 881; numbered along this chain, P46934 (parent)
chain: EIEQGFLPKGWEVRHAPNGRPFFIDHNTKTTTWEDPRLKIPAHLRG

variants of: B1; experiment: abundance fitness (aPCA) (normalised: wild type 0, dead -1); higher = more abundant; growth selection in yeast, the domain comes from the species named; conditions: Homo sapiens
Output spec: single numeric token, no unit.

Request: Requested read-out: abundance fitness. Entry: `N27A`
Response: -0.295

Request: Here is the next variant: `F23S`
Response: -0.856

Request: Here is the next variant: `H26W`
Response: -0.327

Request: Here is the next variant: `P41F`
Response: -0.57

Request: Here is the next variant: `R20E`
Response: -0.035

Request: Here is the next variant: `D25M`
Response: -1.15

Request: Here is the next variant: `R20L`
Response: -0.223

Request: Here is the next variant: `P36V`
Response: -0.96

Request: Here is the next variant: `R37V`
Response: -0.597

Request: Here is the next variant: `K39L`
Response: -0.144

Request: Here is the next variant: `T32C`
Response: -0.538

Request: Here is the next variant: `N18L`
Response: -0.696

Request: Here is the next variant: `R45G`
Response: 0.005

Request: Here is the next variant: `T30G`
Response: -0.595

Request: Here is the next variant: `R37G`
Response: -0.586

Request: Here is the next variant: `T32A`
Response: -0.779

Request: Here is the next variant: `D35H`
Response: -0.418

Request: Here is the next variant: `L44P`
Response: 0.119

Request: Here is the next variant: `H43P`
Response: 0.094

Request: Here is the next variant: `N18Y`
Response: -0.802

Request: Here is the next variant: `F23N`
Response: -0.79

Request: Here is the next variant: `A42V`
Response: -0.128

Request: Here is the next variant: `P21M`
Response: -0.218

Request: Here is the next variant: `A42I`
Response: -0.398

Request: Here is the next variant: `L44Q`
Response: 0.033

Request: Here is the next variant: `I40D`
Response: -0.193

Request: Here is the next variant: `H26M`
Response: -0.262

Request: Here is the next variant: `T32F`
Response: -0.574

Request: Here is the next variant: `I24W`
Response: -0.356

Request: Here is the next variant: `K29Y`
Response: -1

Request: Here is the next variant: `R45Y`
Response: -0.072

Request: Here is the next variant: `R20G`
Response: -0.917

Request: Here is the next variant: `N27S`
Response: -0.302

Request: Here is the next variant: `F22D`
Response: -0.35

Request: Here is the next variant: `W33N`
Response: -0.431

Request: Here is the next variant: `D25A`
Response: -0.848

Request: Here is the next variant: `T30Q`
Response: -0.216
